The origin of these recorded values is patent US10889575B2.

Procedure text: Rapid evaluation of pharmacokinetics in rats
Assay type: in vivo, SD rats
Stated conditions: male, SD, rat, plasma, oral administration 11 mg/kg, n = 3

{"columns": ["Compound", "Cmax, ng/mL"],
 "data": [
  ["O=C(CCN1CCC(c2ccccc2)(c2ccccc2)CC1)c1ccc2[nH]c(=O)oc2c1 [Compound (1)]", 188]
]}

###

Procedure text: Evaluation of the central nervous system distribution in rats
Stated conditions: SD, rat, spinal cord/plasma, intravenous

{"columns": ["Molecular string", "Kp at 2 h"],
 "data": [
  ["O=C(CCN1CCC(c2ccccc2)(c2ccccc2)CC1)c1ccc2[nH]c(=O)oc2c1", 3.7]
]}

###

Procedure text: Rapid evaluation of pharmacokinetics in rats
Assay type: in vivo, SD rats
Stated conditions: male, SD, rat, plasma, intravenous injection 1.85 mg/kg, n = 3
Quantity name: MRT (h)

{"columns": ["Molecular string", "Quantity name", "Recorded measurement"],
 "data": [
  ["O=C(CCN1CCC(c2ccccc2)(c2ccccc2)CC1)c1ccc2[nH]c(=O)oc2c1", "MRT", 3.87]
]}

###

Tested on: acetic acid writhing in mice
Procedure text: mouse acetic acid writhing model (analgesic effect)
Type: in vivo, Kunming mice
Stated conditions: intragastric 30 mg/kg, 40 min before i.p. 0.6% acetic acid, writhings counted over 15 min
Quantity name: Writhing inhibition rate (%)

{"columns": ["Compound", "Quantity name", "Unit spec", "Recorded measurement"],
 "data": [
  ["O=C(CN1CCC(c2ccccc2)(c2ccccc2)CC1)c1ccc2[nH]c(=O)oc2c1 [Compound (2)]", "Writhing inhibition rate (%)", "%", 54.66],
  ["COc1cc(CN2CCC(c3ccccc3)(c3ccccc3)CC2)cc(OC)c1OC.Cl [Compound (4) hydrochloride]", "Writhing inhibition rate (%)", "%", 39.68],
  ["c1ccc(C2(c3ccccc3)CCN(Cc3cccs3)CC2)cc1 [Compound (5)]", "Writhing inhibition rate (%)", "%", 46.87],
  ["O=C(CCN1CCC(c2ccccc2)(c2ccccc2)CC1)c1ccc2[nH]c(=O)oc2c1 [Compound (1)]", "Writhing inhibition rate (%)", "%", 58.77],
  ["O=C(CC(c1ccccc1)c1ccccc1)N1CCN(C(c2ccccc2)c2ccccc2)CC1 [NMED-160, reference compound]", "Writhing inhibition rate (%)", "%", 51.75],
  ["CN(C)c1ccc(CN2CCC(c3ccccc3)(c3ccccc3)CC2)cc1 [Compound (3)]", "Writhing inhibition rate (%)", "%", 23.17]
]}

###

Procedure text: Rapid evaluation of pharmacokinetics in rats
Assay type: in vivo, SD rats
Stated conditions: male, SD, rat, plasma, oral administration 11 mg/kg, n = 3
Method: Compound (1) was dissolved in 25% (w/v) aqueous solution of hydroxypropyl-β-cyclodextrin; Adult SD rats, 180-220 g in body weight, male, purchased from the Animal Center of the Academy of Military Medical Sciences, Animal Certificate SCXK-(Army)-2012-0004; […]

{"columns": ["Compound", "AUC (ng·h/mL)"],
 "data": [
  ["O=C(CCN1CCC(c2ccccc2)(c2ccccc2)CC1)c1ccc2[nH]c(=O)oc2c1 [Compound (1)]", 1670]
]}

###

Procedure text: Rapid evaluation of pharmacokinetics in rats
Format: in vivo, SD rats
Stated conditions: male, SD, rat, plasma, oral administration 11 mg/kg, n = 3

{"columns": ["Molecular string", "Unit spec", "MRT"],
 "data": [
  ["O=C(CCN1CCC(c2ccccc2)(c2ccccc2)CC1)c1ccc2[nH]c(=O)oc2c1", "h", 5.6]
]}

###

Procedure text: Evaluation of the central nervous system distribution in rats
Stated conditions: SD, rat, in vivo

{"columns": ["Molecular string", "Kp at 2 h"],
 "data": [
  ["O=C(CCN1CCC(c2ccccc2)(c2ccccc2)CC1)c1ccc2[nH]c(=O)oc2c1", "3 to 4"]
]}
